- ASSAYED TARGET: T1, Programmed cell death protein 1 (PD-1), human (human, UniProt Q15116 25-167, limits assumed)
- T1 construct: also called full-length PD-1
- T1 sequence (Q15116 25-167 limits assumed): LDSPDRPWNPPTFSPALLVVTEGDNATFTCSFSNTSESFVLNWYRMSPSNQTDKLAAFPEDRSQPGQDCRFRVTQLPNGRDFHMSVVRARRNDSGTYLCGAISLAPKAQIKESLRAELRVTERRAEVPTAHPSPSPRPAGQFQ
- TEST: SPR avidity measurement (mimic cell surface PD-1 clusters), response in nm, three traces
EXPERIMENTAL ENDPOINT: Kd (pM)
A number alone suffices; assume pM.

binder="1-C09-3 (antibody, V domains shown, From the in vitro scFv library of immunised mice) VH: QVQLQQPGAELVRPGTSVKLSCKASGYTFTSYWMHWVKERPGQGLEWIGVIDPSDSYTNYNQKFKDKATLTVDTSSSTAYMQLSSLTSEDSAVYYCARSPFDYWGQGTTLTVSS VL: DIQMTQSQKFMSTSVGDRVSVTCKASQNVGTNVAWYQQKPGQSPKALIYSASYRYSGVPDRFIGSGSGTDFTLTIRNVQSEDLAEYFCQQHNSYPFTFGGGTKLEIK" result_value=770

Please find the next binder below.
// Kd value for 2-D11-1 (antibody, V domains shown, From the in vitro scFv library of immunised mice) VH: EVQLQQPGAELVRPGTSVKLACKASGYTFNTYWMHWVNQRPGQGLEWIGVIDPSDSYTQYNQKFKGKATLTVDTSSSTAYMQLSSLTSEDSAVYYCARSPFDYWGQGTTLTVSS VL: DVQMTQSQKFMSTSVGDRVSVTCKASQNVGTNVAWYQQKPGQSPKALIYSASYRYSGVPDRFIGSGSGTDFTLTISNVQSEDLAEYFCQQHNSYPFTFGGGTKLEIK : 960
